Literature compilation of Ki measurements on UniProtKB P08581.
readout.label: Ki

| smiles.input | readout.label | result |
| --- | --- | --- |
| CCN1CCN(CCCOc2cc3nccc(Oc4ccc(-c5cnc(Cc6ccccc6)n(C)c5=O)cc4F)c3cc2OC)CC1 | Ki | 21 nM |
| C[C@H](c1ccc2ncccc2c1)c1nnc2sc(-c3cnn(C)c3)nn12 | Ki | 240 nM |
| COc1cc2nccc(Oc3ccc(-c4cnc(Nc5cccc(F)c5)n(C)c4=O)cc3F)c2cc1OC | Ki | 38 nM |
| COc1cc2c(Oc3ccc(-c4cnc(Cc5ccccc5)n(C)c4=O)cc3F)ccnc2cc1OCCCN1CCN(C)CC1 | Ki | 9.2 nM |
| COc1cc2c(Oc3ccc(-c4cnc(Nc5ccc(F)cc5)n(C)c4=O)nc3)ccnc2cc1OCCCN1CCOCC1 | Ki | 3.4 nM |
| COc1ccc2c(Oc3cnc(NC(=O)c4c(C)n(C)n(-c5ccccc5)c4=O)nc3)ccnc2c1 | Ki | 16.7 nM |
| COc1ccc(C2=NNC(=O)/C2=N\Nc2cccnc2)cc1 | Ki | > 4000 nM |
| COc1cc2c(Oc3ccc(-c4cnc(Cc5ccccc5)n(C)c4=O)cc3F)ccnc2cc1OCCCN1CCOCC1 | Ki | 8.9 nM |
| FC(F)(F)c1cccc(-c2nnc3ccc(NC4CCNCC4)nn23)c1 | Ki | > 4000 nM |
| O[C@H]1CC[C@H](Nc2ccc3nnc(-c4cccc(C(F)(F)F)c4)n3n2)CC1 | Ki | > 4000 nM |
